The values you see were collected from patent US9499464B2.

Tested on: P23H opsin
protocol: Rhodopsin purification and regeneration (P23H cells treated with compound, regenerated with 9-cis-retinal, 480-500 nm absorbance)
protocolConditions: P23H cells, compound concentration 20 μM, 48 hours, regeneration with 9-cis-retinal (20 μM)
Known Fold Increase Over Control (480-500 nm absorbance as fold increase over the DMSO control) of a selection of compounds
Your answer is read as fold, so omit the unit and give the number.

# count of solved cases: 3
CC1(C)CCC(C)(C)[C@H]2OC(=O)C[C@H]21 (racemic) [Compound 3] :: 2.2
CC1(C)CCC[C@@]2(C)CC[C@H](O)[C@@H]12 (racemic) [Compound 60] :: 2.1
COC(=O)C1=C[C@]2(C)CCCC(C)(C)[C@@H]2C1 (racemic) [Compound 8] :: 2.1

Please fill in: Fold Increase Over Control (480-500 nm absorbance as fold increase over the DMSO control) reported for CC1=C(C)[C@H]2[C@H](CCCC2(C)C)[C@@H]1O (racemic) [Compound 72] = 1.9

Consider CC1(C)CCC[C@@]2(C)CC(CO)C[C@@H]12 (mixture of isomers) [Compound 26] . Its measured Fold Increase Over Control (480-500 nm absorbance as fold increase over the DMSO control) is 2.3

Measured Fold Increase Over Control (480-500 nm absorbance as fold increase over the DMSO control) of CC1(C)CCC[C@@]2(C)C=C(CO)C[C@@H]12 (racemic) [Compound 22] : 1.8

---

Test system: P23H opsin
protocol: Rhodopsin purification and regeneration (P23H cells treated with compound, regenerated with 9-cis-retinal, 480-500 nm absorbance)
protocolConditions: P23H cells, compound concentration 20 μM, 48 hours, regeneration with 9-cis-retinal (20 μM)
Values of Fold Increase Over Control (480-500 nm absorbance as fold increase over the DMSO control) strictly less than 2 fold map to true (1), and values of at least 2 fold map to false (0).

Worked cases, answers included:
CC1(C)CCC[C@@]2(C)CC(O)C[C@@H]12 (mixture of isomers) :: false (0)
C[C@@H]1CC(=O)C2=CCCC(C)(C)[C@H]21 (racemic) :: false (0)
C[C@H]1C(=O)C=C2[C@H]1CCCC2(C)C (racemic) :: true (1)
CC1(C)CCC[C@@]2(C)[C@@H](O)CC[C@@H]12 (racemic) :: true (1)
CC(=O)/C=C/C1=C(C)CCCC1(C)C [β-ionone, reference compound] :: false (0)

Dear colleague, could you confirm whether Fold Increase Over Control (480-500 nm absorbance as fold increase over the DMSO control) of CC1=C(C)[C@H]2[C@H](CCCC2(C)C)C1=O (racemic) falls below 2 fold? Thanks. false (0)

Record CC1(C)CCC(C)(C)[C@H]2CC(=O)C[C@H]21 : is its Fold Increase Over Control (480-500 nm absorbance as fold increase over the DMSO control) strictly below 2 fold? true (1)

Regarding CC(C)[C@H]1C(=O)C=C2[C@H]1CCCC2(C)C (racemic) , kindly confirm whether its Fold Increase Over Control (480-500 nm absorbance as fold increase over the DMSO control) is beneath 2 fold. true (1)

Check if Fold Increase Over Control (480-500 nm absorbance as fold increase over the DMSO control) falls below 2 fold for CN1CC2=C(C1=O)C(C)(C)CCC2 . false (0)

---

Test system: P23H opsin
protocol: Rhodopsin purification and regeneration (P23H cells treated with compound, regenerated with 9-cis-retinal, 480-500 nm absorbance)
protocolConditions: P23H cells, compound concentration 20 μM, 48 hours, regeneration with 9-cis-retinal (20 μM)
If the reported Fold Increase Over Control (480-500 nm absorbance as fold increase over the DMSO control) equals or exceeds 2 fold, assign met. If not, assign not met.

Reference set (5 entries):
C[C@@H]1CC(=NO)[C@H]2C(C)(C)CCC[C@@]12C (racemic) :: met
CC1=CC(=NO)[C@H]2C(C)(C)CCC[C@@]12C (racemic) :: met
CC1=C(C)[C@]2(C)CCCC(C)(C)[C@@H]2C1=O (racemic) :: not met
CC1(C)CCC(C)(C)C2CC(=O)C=C21 (single isomer, unassigned) [Compound 69b] :: not met
CC1=C(C)[C@]2(C)CCCC(C)(C)[C@@H]2[C@H]1O (racemic) :: not met

Quick check, Fold Increase Over Control (480-500 nm absorbance as fold increase over the DMSO control) >= 2 fold? CC1(C)CCC[C@@]2(C)CC(=NO)C[C@@H]12 (racemic) met

Determine whether this compound has Fold Increase Over Control (480-500 nm absorbance as fold increase over the DMSO control) no lower than 2 fold: C[C@H]1C(=O)C=C2C(C)(C)CCC[C@]21C (racemic) not met
